So I've got a bunch of variants here, and I need their self-cleavage kobs at 640 uM GlcN6P values.
B1: glmS ribozyme (parent)
chain: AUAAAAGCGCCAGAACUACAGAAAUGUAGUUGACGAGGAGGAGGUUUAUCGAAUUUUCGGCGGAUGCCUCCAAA

Variants of: B1
Assay: self-cleavage kobs at 640 uM GlcN6P; higher = faster cleavage; RNA array
Details: with glucosamine-6-phosphate
Variants at the floor of the assay were thinned out.

Look at this variant and give its reported self-cleavage kobs at 640 uM GlcN6P. G60C C68G C70U
< 1e-05 s⁻¹

Which self-cleavage kobs at 640 uM GlcN6P value is on record for A14C C34G A64G ?
< 1e-05 s⁻¹

Sample G9C A14G G37U G62C C71A — what was its self-cleavage kobs at 640 uM GlcN6P?
< 1e-05 s⁻¹

Would you kindly share the measured self-cleavage kobs at 640 uM GlcN6P for G13U G43C C67U ?
< 1e-05 s⁻¹

self-cleavage kobs at 640 uM GlcN6P for G13C G63A ?
< 1e-05 s⁻¹

Give the measured self-cleavage kobs at 640 uM GlcN6P of A36U A39U C71U .
< 1e-05 s⁻¹

Consider the variant A39C U45G C70G and give its measured self-cleavage kobs at 640 uM GlcN6P.
< 1e-05 s⁻¹

I'd like to know its self-cleavage kobs at 640 uM GlcN6P. The variant in question is G44U G59A G60A
< 1e-05 s⁻¹

What measured self-cleavage kobs at 640 uM GlcN6P goes with C8U G44A ?
< 1e-05 s⁻¹

Requested field: self-cleavage kobs at 640 uM GlcN6P. Item: G35U G40A A52U
< 1e-05 s⁻¹

Bench note: what self-cleavage kobs at 640 uM GlcN6P did A15G U45A U56G A64C C70A show?
< 1e-05 s⁻¹

# get_value(readout='self-cleavage kobs at 640 uM GlcN6P', item= C11G G29C G59C )
< 1e-05 s⁻¹

Field request: self-cleavage kobs at 640 uM GlcN6P | item: G13C G44C G60A
< 1e-05 s⁻¹

# lookup: self-cleavage kobs at 640 uM GlcN6P of C11G A39U C50G
< 1e-05 s⁻¹

Record request: self-cleavage kobs at 640 uM GlcN6P value, item G13C C50A
< 1e-05 s⁻¹

What value of self-cleavage kobs at 640 uM GlcN6P has been recorded for this entry: G13C C16G G41A
< 1e-05 s⁻¹

Fill blank: measured self-cleavage kobs at 640 uM GlcN6P of the variant C11A C34G is ____.
< 1e-05 s⁻¹

Which self-cleavage kobs at 640 uM GlcN6P is reported for this variant? C10A G13U A15G G40U U46G
< 1e-05 s⁻¹

Can you look up the measured self-cleavage kobs at 640 uM GlcN6P of A12G G62A for me?
< 1e-05 s⁻¹

// self-cleavage kobs at 640 uM GlcN6P lookup, key: G32A A48U U65C
< 1e-05 s⁻¹

Which self-cleavage kobs at 640 uM GlcN6P is listed for G41U G66C C68U ?
< 1e-05 s⁻¹

Query (variant): A36C A39C A53G ; field requested: self-cleavage kobs at 640 uM GlcN6P
< 1e-05 s⁻¹

I am curious: what self-cleavage kobs at 640 uM GlcN6P value has been reported for A33C G37A G41C U56C ?
< 1e-05 s⁻¹

Returns the measured self-cleavage kobs at 640 uM GlcN6P for the input variant. Input: C16U G43C C71A
< 1e-05 s⁻¹

// lookup self-cleavage kobs at 640 uM GlcN6P for C8A C11U
< 1e-05 s⁻¹

Quick one: self-cleavage kobs at 640 uM GlcN6P for C10G G40U C71U ?
< 1e-05 s⁻¹

Dear colleague, I am looking for the recorded self-cleavage kobs at 640 uM GlcN6P of the following variant: C16A G59C
< 1e-05 s⁻¹

Please give the measured self-cleavage kobs at 640 uM GlcN6P for this variant: A36C A39C A52U
< 1e-05 s⁻¹

Dear colleague, I am looking for the recorded self-cleavage kobs at 640 uM GlcN6P of the following variant: A42U C61A
< 1e-05 s⁻¹

May I ask what self-cleavage kobs at 640 uM GlcN6P has been recorded for A53G U65C ?
0.000302 s⁻¹

Look up self-cleavage kobs at 640 uM GlcN6P: A15U G59C
< 1e-05 s⁻¹

State the recorded self-cleavage kobs at 640 uM GlcN6P for this entry: G29A C71U
0.000549 s⁻¹

Recorded self-cleavage kobs at 640 uM GlcN6P of G32A U56C , please.
4.72e-05 s⁻¹

Sample A6U A12C A53U — what was its self-cleavage kobs at 640 uM GlcN6P?
3.14e-05 s⁻¹

Give its self-cleavage kobs at 640 uM GlcN6P value. Item: G40C U47C
0.000201 s⁻¹

Suppose we examine the variant C8A C11A ; what self-cleavage kobs at 640 uM GlcN6P value has been reported?
< 1e-05 s⁻¹

# self-cleavage kobs at 640 uM GlcN6P lookup, item U55A U69G
6.99e-05 s⁻¹

Fill in the blank: the reported self-cleavage kobs at 640 uM GlcN6P of U30C C68U is ____.
4.07e-05 s⁻¹

Need self-cleavage kobs at 640 uM GlcN6P of C8G A15G A33C , thanks.
< 1e-05 s⁻¹

# self-cleavage kobs at 640 uM GlcN6P lookup, item A15U G66C C68A
8.24e-05 s⁻¹

What does the record list as self-cleavage kobs at 640 uM GlcN6P for A14U A15G C16A A52U A53U ?
< 1e-05 s⁻¹

Would you mind telling me what self-cleavage kobs at 640 uM GlcN6P value was observed for G13U G29A ?
3.19e-05 s⁻¹

What value of measured self-cleavage kobs at 640 uM GlcN6P is listed for A33U C71U ?
3.01e-05 s⁻¹

Name the recorded self-cleavage kobs at 640 uM GlcN6P for A42U C67U .
5.2e-05 s⁻¹

// query self-cleavage kobs at 640 uM GlcN6P value for entry A6G G66A
8.05e-05 s⁻¹

// lookup self-cleavage kobs at 640 uM GlcN6P for G51C A64C
< 1e-05 s⁻¹

Which self-cleavage kobs at 640 uM GlcN6P value belongs to C16U G29C C67A ?
0.000258 s⁻¹

Which value of self-cleavage kobs at 640 uM GlcN6P has been reported for G43U G59U G63U C68A in the records?
< 1e-05 s⁻¹

Given the variant G41A G44U G66A , what is its reported self-cleavage kobs at 640 uM GlcN6P?
< 1e-05 s⁻¹

So what's the measured self-cleavage kobs at 640 uM GlcN6P for this one? U30C G38U U57C A64G
< 1e-05 s⁻¹

Form field: reported self-cleavage kobs at 640 uM GlcN6P of G9C C67G C68U
< 1e-05 s⁻¹

Bench note: what self-cleavage kobs at 640 uM GlcN6P did G9C C11G show?
< 1e-05 s⁻¹

Field request: self-cleavage kobs at 640 uM GlcN6P | item: G29U A42C C58A C67G
< 1e-05 s⁻¹

Given C10A A12U U46A , state its recorded self-cleavage kobs at 640 uM GlcN6P.
< 1e-05 s⁻¹

Bench note: what self-cleavage kobs at 640 uM GlcN6P did U31A G60U C71A show?
< 1e-05 s⁻¹

Given C16A G66U C68G , state its recorded self-cleavage kobs at 640 uM GlcN6P.
6.61e-05 s⁻¹

Bench note: what self-cleavage kobs at 640 uM GlcN6P did G37A A64G C71U show?
3.85e-05 s⁻¹

Data request, read-out self-cleavage kobs at 640 uM GlcN6P, for U45A C58A
0.000188 s⁻¹

Fill blank: measured self-cleavage kobs at 640 uM GlcN6P of the variant C11A U30A is ____.
8.58e-05 s⁻¹

Looking for the measured self-cleavage kobs at 640 uM GlcN6P of A12G G59C A64U , can you help?
< 1e-05 s⁻¹

Requested read-out: self-cleavage kobs at 640 uM GlcN6P. Entry: U45A U55A A64G
0.00335 s⁻¹

Could you tell me which self-cleavage kobs at 640 uM GlcN6P is on file for G7A C34A G43A G66U U69G ?
< 1e-05 s⁻¹

Using the record for G40C A48U C61U , report its self-cleavage kobs at 640 uM GlcN6P.
< 1e-05 s⁻¹
